Exercise: for every item that follows, state its recorded ELISA (absorbance units) (absorbance units).
target: unrelated control antibody; test: phage ELISA, 10^10 phagemid per well, wells coated with control mAb
Positions of bridges follow the written chain, without caps; N, C: chain ends. No end group written: not given here.
One number for each entry.

// worked examples, ELISA (absorbance units) (absorbance units) included
CSFRYLWDQDRCS (disulfide 1-12 (inferred)) [phagemid CS1-6p] : 0.203
CSLFYLWDQDRCS (disulfide 1-12 (inferred)) [phagemid CS1-2p] : 0.228

Consider the binder CSFRYQWDMFRCS (disulfide 1-12 (inferred)) [phagemid CS1-11p] and give its recorded ELISA (absorbance units) (absorbance units).
0.242
